Hey, just so you know, these numbers are from BindingDB's records for doi:10.1016/j.bmc.2011.01.052.

# method summary: Inhibition of rat intestinal maltase
pIC50: −log10 of the molar value.
property: pIC50

Consider the following illustrative entries.
- structure as smiles: "OC[C@@H](O)C[S@@+]1C[C@@H](O)[C@H](O)[C@H]1CO"
  reported result: 3.98
- structure as smiles: "OC[C@@H](O)[C@@H](O)[C@H](O)[C@H](O)C[S@@+]1C[C@@H](O)[C@H](O)[C@H]1CO"
  reported result: 5.37
- structure as smiles: "OC[C@@H]1[C@@H](O)[C@H](O)C[S@+]1C[C@@H](O)[C@@H](O)[C@H](O)[C@H](O)[C@@H](O)CO"
  reported result: 5.32
- structure as smiles: "O=S(=O)([O-])O[C@@H]([C@H](O)[C@@H](O)CO)[C@H](O)C[S@@+]1C[C@@H](O)[C@H](O)[C@H]1CO"
  reported result: 5.49

[a] OC[C@@H]1[C@@H](O)[C@H](O)C[S@+]1C[C@@H](O)[C@H](O)[C@H](O)[C@@H](O)CO
[b] OC[C@@H]1[C@@H](O)[C@H](O)C[S@+]1C[C@@H](O)[C@@H](O)[C@H](O)[C@@H](O)CO
Please indicate which item has the smaller measured pIC50: a versus b Returns: label corresponding to the selected item.
b
(b: 5.29, a: 5.89)
